The measured values listed here are drawn from the Immune Epitope Database (IEDB).

Measured on: HLA-A*23:01
Assay: IEDB peptide-MHC binding, purified MHC/competitive/radioactivity; filed as Kd, often an IC50 or EC50 that approximates it; bounds were set here for any values at or beyond the usual limits of such assays
Condition description: source organism: SARS coronavirus Tor2
Let's look at some sequences and their measured Kd.

| Seq text | Kd |
| --- | --- |
| AMDEFIQRY | ≥ 20.1 µM |
| EYKLQQGTF | ≥ 35.1 µM |
| YFMKFRRVF | ≥ 26.9 µM |

With those in mind, consider the next sequence.
q: Any idea what its Kd is? The sequence is VDSSQGSEY
a: ≥ 77.8 µM
